# Lookup of reported Time keyed by entry
Tested on: Mus musculus
Test: Antinociceptive activity in Swiss albino mouse assessed as licking time in secondary inflammatory period at 6 mg/kg, ip administered 30 mins prior to formalin-challenge (reference value: 217 +/- 68.5 seconds)
Assay type: functional
Details: route intraperitoneal
value_kind: Time (s)

{"record_smiles": "CSc1nnc(-c2ccc(S(C)(=O)=O)cc2)c(-c2ccc(F)cc2)n1", "test_system": "Mus musculus", "unit_of_measure": "s", "val": 152}
{"record_smiles": "COc1ccc(-c2nc(SC)nnc2-c2ccc(S(C)(=O)=O)cc2)cc1", "test_system": "Mus musculus", "unit_of_measure": "s", "val": 118}
{"record_smiles": "CSc1nnc(-c2ccc(S(C)(=O)=O)cc2)c(-c2ccc(C)cc2)n1", "test_system": "Mus musculus", "unit_of_measure": "s", "val": 139}
{"record_smiles": "CSc1nnc(-c2ccc(S(C)(=O)=O)cc2)c(-c2ccc(Cl)cc2)n1", "test_system": "Mus musculus", "unit_of_measure": "s", "val": 140}
{"record_smiles": "CSc1nnc(-c2ccc(S(C)(=O)=O)cc2)c(-c2ccccc2)n1", "test_system": "Mus musculus", "unit_of_measure": "s", "val": 155}

* * *

System: Mus musculus
Assay: Antinociceptive activity in Swiss albino mouse assessed as licking time in primary neurogenic period at 3 mg/kg, ip administered 30 mins prior to formalin-challenge (reference value: 80 +/- 19 seconds)
Assay type: functional
Conditions: route intraperitoneal
Criterion: Time strictly under 50 s. Met: True. Not met: False.

{"record_smiles": "CSc1nnc(-c2ccc(S(C)(=O)=O)cc2)c(-c2ccc(Cl)cc2)n1", "cat": "True"}
{"record_smiles": "CSc1nnc(-c2ccc(S(C)(=O)=O)cc2)c(-c2ccccc2)n1", "cat": "False"}
{"record_smiles": "CSc1nnc(-c2ccc(S(C)(=O)=O)cc2)c(-c2ccc(F)cc2)n1", "cat": "False"}
{"record_smiles": "COc1ccc(-c2nc(SC)nnc2-c2ccc(S(C)(=O)=O)cc2)cc1", "cat": "True"}

Source: ChEMBL document CHEMBL3102769
